Molecular target: Dopamine D1 (Homo sapiens)
Sequence (P21728 whole entry): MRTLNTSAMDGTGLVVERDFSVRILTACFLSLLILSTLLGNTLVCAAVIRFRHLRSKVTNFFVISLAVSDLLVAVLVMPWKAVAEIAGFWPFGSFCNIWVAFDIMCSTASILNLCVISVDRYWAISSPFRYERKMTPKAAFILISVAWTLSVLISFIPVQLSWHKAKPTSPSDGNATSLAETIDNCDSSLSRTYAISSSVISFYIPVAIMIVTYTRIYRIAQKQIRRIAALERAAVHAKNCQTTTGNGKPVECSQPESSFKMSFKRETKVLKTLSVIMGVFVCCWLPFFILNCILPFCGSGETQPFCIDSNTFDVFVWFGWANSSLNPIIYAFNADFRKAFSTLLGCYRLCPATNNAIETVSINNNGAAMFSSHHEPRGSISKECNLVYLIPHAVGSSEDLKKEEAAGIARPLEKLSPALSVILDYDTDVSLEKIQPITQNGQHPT
Assay: Radioligand binding assay, Dopamine D1
Details: read-out: K1
Source text: . Table 1 provides data produced via a receptor binding assay and IC50 and Ki determination. […] In addition, the compound of formula (Ia) has a potent DAT inhibition, which is indicative of dopaminergic uptake inhibition and increased DA activity. […]
MEASUREMENT_LABEL: Ki
Reply with the number and its unit after it.

I would be grateful if you could share the reported Ki for CN[C@H]1CC[C@@H](c2ccc(Cl)c(Cl)c2)c2ccc(C#CCCCO)cc21 [compound Ia, hydroiodide] . 1350 nM

====

Target protein (sequence): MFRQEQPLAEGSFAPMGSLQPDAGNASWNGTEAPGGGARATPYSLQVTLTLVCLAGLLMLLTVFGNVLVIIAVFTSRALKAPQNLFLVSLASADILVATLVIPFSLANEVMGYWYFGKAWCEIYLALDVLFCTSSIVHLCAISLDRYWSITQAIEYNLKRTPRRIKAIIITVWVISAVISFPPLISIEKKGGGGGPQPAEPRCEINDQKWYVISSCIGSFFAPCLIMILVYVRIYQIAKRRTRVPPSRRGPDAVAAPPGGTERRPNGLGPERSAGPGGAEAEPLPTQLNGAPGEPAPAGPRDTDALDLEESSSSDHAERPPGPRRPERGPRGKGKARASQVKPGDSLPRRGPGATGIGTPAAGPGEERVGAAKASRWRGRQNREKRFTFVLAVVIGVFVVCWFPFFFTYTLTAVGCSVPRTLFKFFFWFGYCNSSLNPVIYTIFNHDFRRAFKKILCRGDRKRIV
MEASUREMENT_LABEL: pIC50
As a rule, pIC50 stands for the negative log10 of the concentration, concentration in M.

I would be grateful if you could share the reported pIC50 for CN[C@H]1CC[C@@H](c2ccc(Cl)c(Cl)c2)c2ccc(C#CCCCO)cc21 [compound Ia, hydroiodide] . 6.56
